Target: T1, FLAG-tubby-F (full-length mouse tubby with N-terminal FLAG tag) (mouse, UniProt P50586 1-505)
T1 construct: mature; also called FLAG-tagged tubby; tubby-vesicles
T1 sequence: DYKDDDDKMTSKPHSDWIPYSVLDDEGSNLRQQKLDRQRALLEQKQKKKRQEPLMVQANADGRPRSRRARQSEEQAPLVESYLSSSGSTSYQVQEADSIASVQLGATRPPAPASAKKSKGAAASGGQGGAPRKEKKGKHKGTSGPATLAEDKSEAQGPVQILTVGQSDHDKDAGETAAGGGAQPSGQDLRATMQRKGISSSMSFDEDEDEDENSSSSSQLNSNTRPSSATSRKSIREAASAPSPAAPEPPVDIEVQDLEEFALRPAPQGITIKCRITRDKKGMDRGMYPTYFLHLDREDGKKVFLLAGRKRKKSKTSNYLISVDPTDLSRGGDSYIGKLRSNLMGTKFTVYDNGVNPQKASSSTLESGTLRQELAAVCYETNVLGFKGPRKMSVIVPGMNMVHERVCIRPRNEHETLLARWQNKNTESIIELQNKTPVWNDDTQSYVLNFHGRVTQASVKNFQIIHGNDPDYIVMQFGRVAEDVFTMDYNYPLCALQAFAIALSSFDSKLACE
Assay: clonal phage on immobilized FLAG-tubby-F, plaque assay
Property: Binding to tubby-F (binding specificity to FLAG-tubby-F vs. to GFP-FLAG); scope: individual binders
measurement label: Binding to tubby-F (binding specificity to FLAG-tubby-F vs. to GFP-FLAG)

| binder | obs value |
| --- | --- |
| PC4 and SFRS1 interacting protein 1 (Psip1) 152K-219K, phage clone (other, mouse, UniProt Q99JF8 152-219, looked up, range 152-219; Minimal overlap of 4 independent clones; For Y2H recloned into pGAD424) KAEKQVDTEEAGMVTAATASNVKASPKRGRPAATEVKIPKPRGRPKVVKQPCPSDGDMVIDEDKSKKK | ~24 X (fold) |
| Zinc finger protein 609 (Zfp609) 1M-183E, phage clone (other, mouse, UniProt Q8BZ47 1-183, looked up, range 1-183; Minimal overlap of 2 independent clones; For Y2H recloned into pGAD424) MSLSSGACGGKGVDANPVETYDSGDEWDIGVGNLIIDLDADLEKDQQKLEMSGSKEVGIPAPNAVATLPDNIKFVTPVPGPQGKEGKSKSKRSKSGKDASKPTPGTSLFSPSEGAASKKEVQGRAGDGASAGGLVAAVAPKGSEKAAKASRSVAGSKKEKENSSSKGKKERSEGVGTCSEKDP | ~2.3 X (fold) |
| Tubby like protein 1 (Tulp1) 125D-243E, phage clone (other, mouse, UniProt Q9Z273 125-243, looked up, range 125-243; For Y2H recloned into pGAD424) DDDEEEEEKKEGKKEKSSLPPKKAPKEREKKAKALGPRGDVGSPDAPRKPLRTKKKEVGEGTKLRKAKKKGPGETDKDPAGSPAALRKEFPAAMFLVGEGGAAEKGVKKKGPPKGSEEE | ~29.1 X (fold) |
| High mobility group box 2 (Hmgb2) 89K-188E, phage clone (other, mouse, UniProt P30681 89-188, looked up, range 89-188; Minimal overlap of 5 independent clones; For Y2H recloned into pGAD424) KKDPNAPKRPPSAFFLFCSENRPKIKIEHPGLSIGDTAKKLGEMWSEQSAKDKQPYEQKAAKLKEKYEKDIAAYRAKGKSEAGKKGPGRPTGSKKKNEPE | ~21.7 X (fold) |
| Structure specific recognition protein 1 (Ssrp1) 486E-619G, phage clone (other, mouse, UniProt Q08943 486-619, looked up, range 486-619; Minimal overlap of 2 independent clones; For Y2H recloned into pGAD424) EEEEDVAEEFDSNASASSSSNEGDSDREEKKREQLKRAKMAKDRKSRRKSSEAKKGKDPNAPKRPMSAYMLWLNASREKIKSDHPGISITDLSKKAGEIWKGMSKEKKEEWDRKAEDARREYEKAMKEYEGGRG | ~4.5 X (fold) |
| IQ motif containing GTPase activating protein 2 (Iqgap2) 1232E-1368E, phage clone (other, mouse, UniProt Q3UQ44 1232-1368, looked up, range 1232-1368) EKSDLLNELLESLGEVPTVESFLGEGAVDPNDPNKENTLNQLSKTEISLSLTSKYDVKDGEAVDGRSLMIKTKKLIIDVTRNQPGSTLTEILETPATGQQELEHAKDMESRAVVDSRTPEEGKQSQAVIEDARLPLE | ~1.8 X (fold) |
| Zinc finger E-box binding homeobox 1 (Zeb1) 903E-1021E, phage clone (other, mouse, UniProt Q64318 903-1021, looked up, range 903-1021; Residues are the minimal overlap of 2 independent clones; For Y2H the insert was recloned into pGAD424) EHTGKRPHECGICRKAFKHKHHLIEHMRLHSGEKPYQCDKCGKRFSHSGSYSQHMNHRYSYCKRGAEDRDAMEQEDAGPEVLPEVLATEHVGARASPSQADSDERESLTREEDEDSEKE | ~28.7 X (fold) |
| CCCTC-binding factor (Ctcf) 136G-400T, phage clone (other, mouse, UniProt Q61164 136-400, looked up, range 136-400; For Y2H recloned into pGAD424) GAYENEVSKEGLAESEPMICHTLPLPEGFQVVKVGANGEVETLEQGELPPQEDSSWQKDPDYQPPAKKTKKTKKSKLRYTEEGKDVDVSVYDFEEEQQEGLLSEVNAEKVVGNMKPPKPTKIKKKGVKKTFQCELCSYTCPRRSNLDRHMKSHTDERPHKCHLCGRAFRTVTLLRNHLNTHTGTRPHKCPDCDMAFVTSGELVRHRRYKHTHEKPFKCSMCDYASVEVSKLKRHIRSHTGERPFQCSLCSYASRDTYKLKRHMRT | ~44.9 X (fold) |
| ATP-binding cassette F1 (Abcf1) 57K-196G, phage clone (other, mouse, UniProt Q6P542 57-196, looked up, Minimal overlap of 2 independent clones; For Y2H recloned into pGAD424) KLQKEKEQQQQQQQQKKKRDTRKGRRKKDVDDDSDERVLMERLKQLSVPASDEEDEVPAPIPRGRKKAKGGNVFEALIQDDSEEEEEEEENRVLKPAKPEKNRINKAVAEEPPGLRSKKGKEEKSKGKAKSKPAAADSEG | ~27.2 X (fold) |
| Microtubule-associated protein 7 (Mtap7) 23A-114R, phage clone (other, mouse, UniProt O88735 23-114, looked up, range 23-114; For Y2H recloned into pGAD424) ASDGYKVQEKRTAPSRPTSTVSGQTSNHSGNKPDPPPVLRVDDRQRLARERREEREKQLAARETVWLEREERARQHYERHLEARKKKLEDQR | ~3.8 X (fold) |
